Target: human sphingosine-1-phosphate receptor 1 (S1P1) (Homo sapiens, UniProt P21453)
Sequence (P21453 whole entry): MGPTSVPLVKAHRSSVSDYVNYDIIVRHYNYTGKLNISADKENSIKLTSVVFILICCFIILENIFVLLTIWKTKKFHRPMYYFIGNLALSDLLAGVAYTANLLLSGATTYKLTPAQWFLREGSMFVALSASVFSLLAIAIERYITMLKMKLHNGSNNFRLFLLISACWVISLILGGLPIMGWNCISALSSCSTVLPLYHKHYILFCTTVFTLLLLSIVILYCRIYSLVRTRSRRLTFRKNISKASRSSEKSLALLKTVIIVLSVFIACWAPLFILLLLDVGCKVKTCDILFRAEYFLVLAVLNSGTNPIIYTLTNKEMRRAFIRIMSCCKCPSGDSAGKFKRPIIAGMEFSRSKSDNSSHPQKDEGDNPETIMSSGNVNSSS
Sequence (P32121 whole entry partner): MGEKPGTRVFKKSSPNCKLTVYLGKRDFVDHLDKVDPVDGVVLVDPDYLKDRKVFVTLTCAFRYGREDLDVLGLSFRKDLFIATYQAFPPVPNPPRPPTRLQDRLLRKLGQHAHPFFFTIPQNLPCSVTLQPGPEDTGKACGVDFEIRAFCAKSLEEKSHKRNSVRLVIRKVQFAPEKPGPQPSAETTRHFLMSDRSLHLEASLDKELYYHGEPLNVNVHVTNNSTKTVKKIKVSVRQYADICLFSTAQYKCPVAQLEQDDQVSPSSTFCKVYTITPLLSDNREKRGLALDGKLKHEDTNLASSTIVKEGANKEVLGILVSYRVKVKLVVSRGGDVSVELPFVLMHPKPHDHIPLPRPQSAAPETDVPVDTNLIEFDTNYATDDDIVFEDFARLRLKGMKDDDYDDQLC
Experiment: β-Arrestin2 recruitment assay (PathHunter), S1P1 CHO-K1 cells
Format: cell-based
Details: CHO-K1, β-arrestin2 recruitment; efficacy normalized to maximum efficacy of fingolimod; read-out: hS1P1 B-arrestin2 SPAN
Method: Stable clonal Chinese hamster ovary K1 (CHO-K1) cells co-expressing EA-β-arrestin2 and the human sphingosine-1-phosphate receptor 1 (NM_001400, S1P1) with a C-terminal Prolink™ tag were purchased from DiscoverX corporation (Cat #: 93-0207C2). […] Agonist-promoted β-arrestin2 recruitment to the sphingosine-1-phosphate 1 receptor was determined using the β-arrestin PathHunter® Detection kit (DiscoverX Corporation, Cat #: 93-0001). […]
MEASURE NAME: Emax

| MOLECULE | MEAS VALUE |
| --- | --- |
| CC(C)n1nnc2cc(-c3nc(-c4ccc(-c5ccccc5)cn4)no3)ccc21 [Compound 9] | < 75% |
| CC(C)C(c1ccccc1)c1noc(-c2ccc3c(c2)nnn3C(C)C)n1 (stereo not drawn) [Compound 56] | < 75% |
| C=CCn1nc2ccc(-c3nc(-c4ccccc4)no3)cc2n1 [Compound 39] | < 75% |
| COc1ccccc1-c1noc(-c2ccc3[nH]cnc3c2)n1 [Compound 369] | < 75% |
| C=CCNc1ccc(-c2nc(-c3ccc4sc(N)nc4c3)no2)cc1C#N [Compound 267] | < 75% |
| Brc1ccccc1-c1nc(-c2ccc3c(c2)nnn3Cc2ccccn2)no1 [Compound 45] | < 75% |
| CC(F)(F)CNc1ccc(-c2nnc(-c3ccc4[nH]ncc4c3)o2)cc1C#N [Compound 355] | > 75% |
| CC(C)n1nnc2cc(-c3noc(-c4cccc(COc5ccccc5)c4)n3)ccc21 [Compound 23] | < 75% |
| Brc1ccccc1-c1nc(-c2ccc3c(c2)nnn3Cc2ccccc2)no1 [Compound 52] | < 75% |
| CCC1(CC)CC(=O)c2cc(-c3nc(-c4ccccc4OC)ns3)ccc2O1 [Compound 257] | < 75% |

Emax in this record for CCC1(CC)CC(=O)c2cc(-c3nc(-c4ccc(S(=O)(=O)NC)cc4)no3)ccc2O1 [Compound 266] : > 75%

Emax in this record for Cc1ccccc1-c1noc(-c2ccc3scnc3c2)n1 [Compound 362] : < 75%

Emax in this record for O=C1CC2(CCOCC2)Oc2ccc(-c3nc(-c4ccncc4)no3)cc21 [Compound 148] : < 75%

Emax in this record for COc1ccc(-c2noc(-c3ccc4c(c3)nnn4C(C)C)n2)c(C)c1 [Compound 55] : > 75%

Emax in this record for Cc1ccsc1-c1noc(-c2ccc3c(c2)nnn3C2CCCC2)n1 [Compound 46] : > 75%

Emax in this record for CC(C)n1nnc2cc(-c3noc(C4CCC4)n3)ccc21 [Compound 18] : < 75%

Emax in this record for CSc1ccccc1-c1nc(-c2ccc3c(c2)nnn3C2CCCC2)no1 [Compound 16] : > 75%

Emax in this record for c1ccc(-c2noc(-c3ccc4c(c3)nnn4C3CCCC3)n2)cc1 [Compound 7] : > 75%

Origin of the recorded values: patent US20230114241A1
